# STUDY SYSTEM: human P2X3 receptor (Homo sapiens (Human), UniProt P56373)
# Sequence (P56373 whole entry): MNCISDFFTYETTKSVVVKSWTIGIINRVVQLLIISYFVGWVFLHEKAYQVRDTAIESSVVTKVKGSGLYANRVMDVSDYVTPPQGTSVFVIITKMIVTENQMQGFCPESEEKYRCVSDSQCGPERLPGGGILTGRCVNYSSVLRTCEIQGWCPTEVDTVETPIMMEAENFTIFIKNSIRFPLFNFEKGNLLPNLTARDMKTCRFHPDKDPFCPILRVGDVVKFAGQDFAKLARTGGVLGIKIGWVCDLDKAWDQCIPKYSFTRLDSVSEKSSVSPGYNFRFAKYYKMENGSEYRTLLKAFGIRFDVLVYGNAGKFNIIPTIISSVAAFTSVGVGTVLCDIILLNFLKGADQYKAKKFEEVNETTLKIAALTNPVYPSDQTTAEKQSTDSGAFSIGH
# ASSAY REMARKS: Evaluation of human P2X3 receptor inhibitory activity (Test Example 1-1, FDSS 3000, 96-well, 50 nM ATP)
# Type: cell-based
# RUN CONDITIONS: human P2X3 receptor in C6BU-1 cells; Test Example 1-1 (compounds I-001 to I-300)
A collection of compounds and their measured IC50
// note: answer is a bare numeric in nM

Some entries whose results are on file:
>>> obs_value("CCC(=O)Nc1c[nH]/c(=N\\c2ccc(Oc3cnc(C(N)=O)cn3)cc2)n(Cc2ccc(Cl)cc2)c1=O")
5
>>> obs_value("N#Cc1cnc(Oc2ccc(/N=c3\\[nH]cc(NC(=O)C4CCOCC4)c(=O)n3Cc3ccc(Cl)cc3)cc2)cn1")
2
>>> obs_value("O=C(Nc1c[nH]/c(=N\\c2ccc(Oc3ccon3)cc2)n(Cc2ccc(Cl)cc2)c1=O)c1ccccn1")
868
>>> obs_value("CCn1c(=O)cc(Nc2ccc(Oc3cccc(C(N)=O)n3)cc2)n(Cc2ccc(Cl)cc2)c1=O")
6
>>> obs_value("CCc1oc2ccc(/N=c3\\[nH]cc(CC(C)(C)O)c(=O)n3Cc3ccc(Cl)cc3)cc2c1C")
144

Query: Could you share which IC50 value was measured for "O=c1c(-c2ccncc2)c[nH]/c(=N\c2ccc(Oc3ccon3)cc2)n1Cc1ccc(Cl)cc1" ?
Reply: 356

###

# STUDY SYSTEM: human P2X3 receptor (Homo sapiens (Human))
# ASSAY REMARKS: Evaluation of human P2X3 receptor inhibitory activity (Test Example 1-1, FDSS 3000, 96-well, 50 nM ATP)
# Assay type: cell-based
# RUN CONDITIONS: human P2X3 receptor in C6BU-1 cells; Test Example 1-1 (compounds I-001 to I-300)
Each item that follows carries a reported IC50.
Respond with the bare value in nM.

>>> obs_value("NC(=O)c1ccc(Oc2ccc(Nc3nc(=O)c(C(=O)NC4CCOCC4)cn3Cc3ccc(Cl)cc3)cc2)cn1")
10
>>> obs_value("CCCn1c(=O)cc(Nc2ccc(Oc3cccc(C(=O)O)n3)cn2)n(Cc2ccc(Cl)cc2)c1=O")
16

We next turn to a different compound, shown below.
Query: # query: IC50 of entry "Cc1nocc1C(=O)Nc1c[nH]/c(=N\c2ccc(Oc3ccon3)cc2)n(Cc2ccc(Cl)cc2)c1=O"
Reply: 15

###

// reported IC50 per item
# STUDY SYSTEM: human P2X3 receptor (Homo sapiens (Human))
# ASSAY REMARKS: Evaluation of human P2X3 receptor inhibitory activity (Test Example 1-1, FDSS 3000, 96-well, 50 nM ATP)
# Assay type: cell-based
# RUN CONDITIONS: human P2X3 receptor in C6BU-1 cells; Test Example 1-1 (compounds I-001 to I-300)
The figure you give is taken to be in nM; do not add the unit.

Query: Given the entry CCN/C(=N\C#N)Nc1c[nH]/c(=N\c2ccc(Oc3ccon3)cc2)n(Cc2ccc(Cl)cc2)c1=O [Compound I-251] , what IC50 was observed with human P2X3 receptor (Homo sapiens (Human))?
Reply: 118

Query: And for CCC(=O)N(C)C1=CN/C(=N\c2ccc(Oc3cccc(C(=O)O)n3)cc2)N(Cc2ccc(Cl)cc2)C1 [Compound I-241] ?
Reply: 8

Query: And then Cc1nsc(Oc2ccc(/N=c3\[nH]cc(NC(=O)C4CCOCC4)c(=O)n3Cc3ccc(Cl)cc3)cc2)n1 [Compound I-225] , what is it?
Reply: 6

Query: Also CCC(=O)Nc1c[nH]/c(=N\c2ccc(Oc3ccc(CO)nc3)cc2)n(Cc2ccc(Cl)cc2)c1=O [Compound I-118] , if possible.
Reply: 17

Query: And what about the compound NC(=O)c1cc(Oc2ccc(Nc3nc(=O)c(C(=O)NC4CCOCC4)cn3Cc3ccc(Cl)cc3)cc2)ccn1 [Compound I-240] ?
Reply: 6
